system: Pseudomonas aeruginosa V-1; experiment: Antibacterial spectrum, MIC; conditions: V1
Below is a list of entries, each paired with its recorded MIC value.
Give the value, in units of µg/mL, as a plain number.

input: Entry O=C(O)c1cn(C2CC2)c2cc(N3CCNCC3)c(F)cc2c1=O [CPFX, ciprofloxacin, reference compound] : reported MIC = ?
output: 0.05

----------
tested on: Shigella sonnei IID 969; experiment: Antibacterial spectrum, MIC; assay type: cell-based; conditions: IID969, 10^6 cells/ml, Gram -, standard strain
Below is a list of entries, each paired with its recorded MIC value.
Give the value, in units of µg/mL, as a plain number.

Answered examples (3):
- compound: "O=C(O)c1cn(C2CC2)c2cc(N3CCNCC3)c(F)cc2c1=O [CPFX, ciprofloxacin, reference compound]"
  observed-property: "MIC"
  experimental-result: 0.0063
- compound: "CC1COc2c(N3CCN(C)CC3)c(F)cc3c(=O)c(C(=O)O)cn1c23 (stereo not shown) [OFLX, ofloxacin, reference compound]"
  observed-property: "MIC"
  experimental-result: 0.05
- compound: "CC1CN(c2c(F)cc3c(=O)c(C(=O)O)cn(C4CC4)c3c2Br)CCN1.Cl (stereo not shown)"
  observed-property: "MIC"
  experimental-result: 0.025

Okay, now this compound:
input: Entry O=C(O)c1cn(C2CC2)c2c(Br)c(N3CCNCC3)c(F)cc2c1=O : reported MIC = ?
output: 0.025

Where do these numbers come from? They come from patent US4826982A.
